biological target: D(2) dopamine receptor (Rattus norvegicus); assay: In vitro binding affinity measured on dopamine receptor D2 using [3H]spiroperidol as radioligand.
Sequence (P61169 whole entry): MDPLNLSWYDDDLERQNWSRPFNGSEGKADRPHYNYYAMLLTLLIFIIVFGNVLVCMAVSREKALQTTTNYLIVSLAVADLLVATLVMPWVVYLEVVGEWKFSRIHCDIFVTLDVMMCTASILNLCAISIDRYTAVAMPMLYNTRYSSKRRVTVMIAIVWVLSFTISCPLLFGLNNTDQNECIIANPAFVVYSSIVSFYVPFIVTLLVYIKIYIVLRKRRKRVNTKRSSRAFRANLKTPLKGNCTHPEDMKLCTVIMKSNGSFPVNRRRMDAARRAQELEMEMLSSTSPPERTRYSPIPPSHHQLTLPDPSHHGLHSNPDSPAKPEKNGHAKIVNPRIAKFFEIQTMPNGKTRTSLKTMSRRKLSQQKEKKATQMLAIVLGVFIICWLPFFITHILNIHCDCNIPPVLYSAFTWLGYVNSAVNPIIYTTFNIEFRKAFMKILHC
So basically, the class depends on measured IC50, and the ranges are lower level (below 20 nM), middle level (20 nM to below 200 nM), upper level (200 nM or more)

These solved cases illustrate the format of a correct answer.
For the record COc1cccc2c1CCC=C2CCCN1CCN(c2cccc(C(F)(F)F)c2)CC1 , report the class its IC50 corresponds to.
upper level

For the record COc1ccccc1N1CCN(CCNC2CCCc3c(OC)cccc32)CC1 (stereo unspecified) , report the class its IC50 corresponds to.
upper level

Continuing:
For the record COc1ccccc1N1CCN(CC/C=C2\CCCc3c(OC)cccc32)CC1 , report the class its IC50 corresponds to.
lower level

For the record COc1ccccc1N1CCN(CCSC2CCCc3c(OC)cccc32)CC1 (stereo unspecified) , report the class its IC50 corresponds to.
lower level

For the record COc1cccc2c1CCC/C2=C\CCN1CCN(c2ccccn2)CC1 , report the class its IC50 corresponds to.
middle level

For the record COc1ccccc1N1CCN(CCCC2CCCc3ccsc32)CC1 (stereo unspecified) , report the class its IC50 corresponds to.
middle level

For the record COc1ccccc1N1CCN(CCCC2=CCCc3c(OC)cccc32)CC1 , report the class its IC50 corresponds to.
lower level

====

molecular target: Serotonin 1a (5-HT1a) receptor/Adrenergic receptor alpha-1 (Rattus norvegicus) (UniProt P15823+P23944+P43140+P19327); assay: Selectivity ratio of IC50 value against alpha-1 receptor to that of 5-HT1A receptor.; assay type: protein assay
quantityKind: Selectivity

Check out these entries, answers already filled in.
Which measured Selectivity value corresponds to COc1ccccc1N1CCN(CCNC2CCCc3c(OC)cccc32)CC1 (stereo unspecified) ?
21

Which measured Selectivity value corresponds to COc1ccccc1N1CCN(CCCC2=CCCc3c(OC)cccc32)CC1 ?
3.7

Which measured Selectivity value corresponds to COc1ccc2c(c1)C(SCCN1CCN(c3ccccc3OC)CC1)CCC2 (stereo unspecified) ?
20

Which measured Selectivity value corresponds to COc1ccccc1N1CCN(CC/C=C2\CCCc3c(OC)cccc32)CC1 ?
12

Continuing:
Which measured Selectivity value corresponds to COc1ccccc1N1CCN(CC/C=C2\CCCc3ccccc32)CC1 ?
2

Which measured Selectivity value corresponds to COc1ccc2c(c1)C(CCCN1CCN(c3ccccc3)CC1)CCC2 (stereo unspecified) ?
20

Which measured Selectivity value corresponds to COc1ccc2c(c1)C(CCCN1CCN(c3ccccn3)CC1)CCC2 (stereo unspecified) ?
77

Which measured Selectivity value corresponds to COc1ccc2c(c1)C(CCCN1CCN(c3cccc(C(F)(F)F)c3)CC1)CCC2 (stereo unspecified) ?
33

Which measured Selectivity value corresponds to COc1ccc2c(c1)C(CCCN1CCN(c3ccccn3)CC1)=CCC2 ?
2.4

Which measured Selectivity value corresponds to COc1ccccc1N1CCN(CCCCC2=CCCc3c(OC)cccc32)CC1 ?
7.4

Which measured Selectivity value corresponds to COc1cccc2c1CCCC2CCCN1CCN(c2cccc(C(F)(F)F)c2)CC1 (stereo unspecified) ?
49

====

species: Cavia porcellus; test: Selectivity as the ratio of IC50 value against sigma receptor to that of 5-HT1A receptor.
Selectivity listing for selected compounds.

Check out these entries, answers already filled in.
Which measured Selectivity value corresponds to COc1ccccc1N1CCN(CC/C=C2\CCCc3c(OC)cccc32)CC1 ?
100

Which measured Selectivity value corresponds to COc1ccccc1N1CCN(CC/C=C2\CCCc3ccccc32)CC1 ?
30

Which measured Selectivity value corresponds to COc1ccc2c(c1)C(SCCN1CCN(c3ccccc3OC)CC1)CCC2 (stereo unspecified) ?
20

Which measured Selectivity value corresponds to COc1ccc2c(c1)C(CCCN1CCN(c3cccc(C(F)(F)F)c3)CC1)CCC2 (stereo unspecified) ?
0.99

Which measured Selectivity value corresponds to COc1ccc2c(c1)C(CCCN1CCN(c3ccccn3)CC1)=CCC2 ?
3.9

Turning now to a further record.
Which measured Selectivity value corresponds to COc1ccccc1N1CCN(CCCC2=CCCc3c(OC)cccc32)CC1 ?
3.8

Source listed as ChEMBL document CHEMBL1128270.
